Below, each entry is listed with its recorded GI50.
system: RXF 393; assay: NCI tumour cell line growth inhibition, 48 h
Activity calls are given as the source filed them. Cut-off read from the data, not from the text of the source: active = GI50 up to about 1.1 µM and inactive = higher.

Answered cases to consult:
[[record]]
molecule = "CC(O)c1ccc(C(O)/C(=N\\NC(=O)c2ccncc2)c2nc3ccc([N+](=O)[O-])cc3nc2O)cc1 (stereo not given)"
measured_attribute = "GI50"
observed = "> 100 µM (inactive)"

[[record]]
molecule = "Cn1c(=O)c2sc3c4sc5c(=O)n(C)c6ccccc6c5c4sc3c2c2ccccc21"
measured_attribute = "GI50"
observed = "12.6 µM (inactive)"

[[record]]
molecule = "CC(NC(=O)c1c(O)[nH]c(=S)[nH]c1=O)c1ccc([N+](=O)[O-])cc1 (stereo not given)"
measured_attribute = "GI50"
observed = "> 100 µM (inactive)"

[[record]]
molecule = "NC(c1ccccc1)(C(F)(F)F)P1(=O)OC(=O)c2ccccc2O1 (stereo not given)"
measured_attribute = "GI50"
observed = "> 100 µM (inactive)"


Reported GI50 (RXF 393) for entry O=C1C(Cl)C(c2cccc(Br)c2)N1c1c(O)c(Cl)cc(Br)c1Cl (stereo not given) is 10.9 µM (inactive)
